- System: DU-145 prostate
- test.details: NCI-60 one-dose screen, 48 h (100 = growth as untreated, 0 = no growth, -100 = all killed)
- cond: 10 µM unless noted
The panel holds about 83,000 compounds, 20% with a hit somewhere; the sample as a whole holds those more often. Active and inactive are the calls of the source. The calls were made as follows: active = growth percent below 10; inactive = the rest.
readout.name: growth

molecule: C[C@H](O)CCC(=O)c1ccoc1
readout.name: growth
result: 100% (inactive)
//
molecule: O=C/C=C/c1ccco1
readout.name: growth
result: 108% (inactive)
//
molecule: O=[N+]([O-])c1c(Cl)cc(Cl)c([N+](=O)[O-])c1Cl
readout.name: growth
result: 81.3% (inactive)
//
molecule: O=[N+]([O-])c1ccc(P(=O)(O)O)cc1
readout.name: growth
result: 110% (inactive)
//
molecule: CCCC(C)SP(=S)(SC(C)CCC)SC(C)CCC (stereo not drawn)
readout.name: growth
result: 108% (inactive)
//
molecule: CC[C@H](C)[C@H](NC(=O)C12CC(NC)(C1)C2)C(=O)N(C)[C@H](C[C@@H](OC(C)=O)c1nc(C(=O)N[C@@H](Cc2ccccc2)C[C@H](C)C(=O)OC)cs1)C(C)C
readout.name: growth
result: -8.21% (active)
//
molecule: ClCc1ccc(Cl)c(Cl)c1
readout.name: growth
result: 106% (inactive)
//
molecule: O=C(O)c1ccccc1N(CCO)CCCl
readout.name: growth
result: 103% (inactive)
//
molecule: COc1ccc2c(c1)c(-c1nc(-c3cn(C)c4ncccc34)cs1)cn2CCCCN1CCOCC1
readout.name: growth
result: 46.8% (inactive)
//
molecule: O=[P+](O)c1cccnc1
readout.name: growth
result: 114% (inactive)
//
molecule: CC1(C)N=C(N)N=C(N)N1c1ccc(CCC(=O)Nc2ccc(S(=O)(=O)F)cc2)cc1
readout.name: growth
result: 28.1% (inactive)
//
molecule: O=CC1(c2ccccc2)CCN(Cc2ccccc2)CC1
readout.name: growth
result: 106% (inactive)
//
molecule: CCCn1cc2c3c(cccc31)[C@H]1C[C@@H](C)CN(C)[C@@H]1C2
readout.name: growth
result: 99.8% (inactive)
//
molecule: CC1(C)CN=C(NN=C(/C=C/c2ccc(C(F)(F)F)cc2)/C=C/c2ccc(C(F)(F)F)cc2)NC1
readout.name: growth
result: -13.7% (active)
//
molecule: COc1ccc(N(CC(=O)NCCC[Te]c2ccccc2)C(=O)c2ccccc2)cc1
readout.name: growth
result: 66.6% (inactive)
//
molecule: CC[C@H](C)[C@H](NC(=O)[C@H]1CCCCN1C)C(=O)N(C)[C@H](C[C@@H](OC(C)=O)c1cccc(C(=O)N[C@@H](Cc2ccccc2)C[C@H](C)C(=O)OC)n1)C(C)C
readout.name: growth
result: 2.8% (active)
//
molecule: CCCC[C@H]1C(=O)O[C@H](C)[C@H](NC(=O)c2cccc(NC=O)c2O)C(=O)O[C@@H](C)[C@@H]1OC(=O)CC(C)C
readout.name: growth
result: 85.9% (inactive)
//
molecule: N#CCc1ccc(CC#N)cc1
readout.name: growth
result: 116% (inactive)
//
molecule: O=S(=O)(c1ccc(O)cc1)c1ccccc1O
readout.name: growth
result: 111% (inactive)
//
molecule: CCC(Br)(CC)C(=O)NC(N)=O
readout.name: growth
result: 107% (inactive)
//
molecule: CCCCOC(N)=O
readout.name: growth
result: 109% (inactive)
//
molecule: N#CCCc1ccccc1
readout.name: growth
result: 119% (inactive)
//
molecule: CCCCCCCCCCCCCCCCCC1OCC(COC(=O)O[C@@H](C(=O)O[C@H]2C[C@@]3(O)[C@@H](OC(=O)c4ccccc4)[C@@H]4[C@]5(OC(C)=O)CO[C@@H]5C[C@H](O)[C@@]4(C)C(=O)[C@H](OC(C)=O)C(=C2C)C3(C)C)[C@@H](NC(=O)c2ccccc2)c2ccccc2)O1 (stereo partly drawn)
readout.name: growth
result: 44.4% (inactive)
//
molecule: COc1cc(C2C3=C(CCCC3=O)N(CCO)c3cc4c(cc32)CCC4)cc(OC)c1OC (stereo not drawn)
readout.name: growth
result: 94.1% (inactive)
//
molecule: COc1cc2c(cc1OC)-c1c3c(cc4c1[C@@H](C2)N(C)CC4)OCO3
readout.name: growth
result: 45.3% (inactive)
//
molecule: CN1[C@@H](CC(=O)c2ccccc2)CCC[C@H]1CC(=O)c1ccccc1
readout.name: growth
result: 108% (inactive)
//
molecule: C/C(=C(\c1ccc(OCCN2CCOCC2)cc1)c1ccc(OC(=O)Cc2ccccc2)cc1)c1ccc(Cl)cc1
readout.name: growth
result: 97.8% (inactive)
//
molecule: Cc1ccc(P(=O)(O)O)cc1
readout.name: growth
result: 116% (inactive)
//
molecule: O=Cc1cn(Cc2ccccc2)c2ccccc12
readout.name: growth
result: 108% (inactive)
//
molecule: C/C(=C\c1ccn(-c2ccc(N)c(C(F)(F)F)c2)n1)[C@@H]1C[C@@H]2O[C@]2(C)CCC[C@H](C)[C@H](O)[C@@H](C)C(=O)C(C)(C)[C@@H](O)CC(=O)O1
readout.name: growth
result: -12.7% (active)
//
molecule: CC(=O)Nc1nc2c(s1)C1=CC[C@H]3[C@@H]4CC[C@H](OC(C)=O)[C@@]4(C)CC[C@@H]3[C@@]1(C)CC2
readout.name: growth
result: 72.1% (inactive)
//
molecule: COc1ccc(N)cc1N
readout.name: growth
result: 120% (inactive)
//
molecule: NC(=O)Oc1cc(OC(N)=O)cc(N(CCCl)CCCl)c1
readout.name: growth
result: 34.3% (inactive)
//
molecule: CC[C@H](C)[C@H](NC(=O)c1cnccn1)C(=O)N(C)[C@H](C[C@@H](OC(C)=O)c1nc(C(=O)N[C@@H](Cc2ccccc2)C[C@H](C)C(=O)OC)cs1)C(C)C
readout.name: growth
result: 6.92% (active)
//
molecule: O=P1(N(CCCl)CCCl)NCCCO1 (stereo not drawn)
readout.name: growth
result: 124% (inactive)
//
molecule: CCN1C(=O)NC(=O)C(C)(N2C(=O)c3c(F)c(F)c(F)c(F)c3C2=O)C1=O (stereo not drawn)
readout.name: growth
result: 31.9% (inactive)
//
molecule: O=c1[nH]c(=O)n(Cl)c(=O)n1Cl
readout.name: growth
result: 142% (inactive)
//
molecule: ClC1OC(Cl)(Cl)C(Cl)(Cl)OC1(Cl)Cl (stereo not drawn)
readout.name: growth
result: 114% (inactive)

---

- Tested on: SK-MEL-2 melanoma
- test.details: NCI-60 one-dose screen, 48 h
- cond: 10 µM unless noted
- Description: Growth inhibition of the SK-MEL-2 human tumor cell line is measured as a screen for anti-cancer activity. Cells are grown in 96 well plates and exposed to the test compound for 48 hours. Compounds are tested at a single concentration, which is 10^-5 M for most compounds. The reported endpoint is percent growth (GI% or GIPRCNT), where numbers from 0 - 100% represent growth inhibition, and numbers from -100% - 0 represent cell death. For example, a value of 40 represents 60% growth inhibition. […]
The panel holds about 83,000 compounds, 20% with a hit somewhere; the sample as a whole holds those more often. Active and inactive are the calls of the source. How the source made its calls: active means growth percent below 10; inactive means the rest.
Labels: 1.0 (active), 0.0 (inactive)

compound: CC(Oc1ccc(-c2ccccc2)cc1)C(=O)O (configuration not stated)
discrete.label: 0.0

compound: CN1[C@@H](CC(=O)c2ccccc2)CCC[C@H]1CC(=O)c1ccccc1
discrete.label: 0.0

compound: CCCN1C(=O)NC(=O)C(CC)(N2C(=O)c3c(F)c(F)c(F)c(F)c3C2=O)C1=O (configuration not stated)
discrete.label: 1.0

compound: CC[PH+](CC)CC.O=COC1OC([S-])C(OC=O)C(OC=O)C1OC=O.[Au+] (configuration not stated)
discrete.label: 1.0

compound: OCCN=Cc1c[nH]c2ccccc12
discrete.label: 0.0

compound: Cc1cc(NC(=O)NCCCOc2ccc(N3C(N)=NC(N)=NC3(C)C)cc2Cl)ccc1S(=O)(=O)F
discrete.label: 0.0

compound: CO/N=C1\CC[C@]2(C)[C@H]3CC[C@]4(C)C(=O)CC[C@H]4[C@@H]3C[C@@H]3SC(N)=N[C@@]32C1
discrete.label: 0.0

---

- Tested on: UACC-257 melanoma
- test.details: NCI-60 one-dose screen, 48 h (100 = growth as untreated, 0 = no growth, -100 = all killed)
- cond: 10 µM unless noted
About 83,000 compounds went through this panel and 20% of them were active in at least one assay; those are over-represented in the sample as a whole.
readout.name: growth (%)

molecule: C[C@@]12CCCc3coc(c31)C(=O)c1cc3c(cc12)C(=O)C1=C(NCCS1(=O)=O)C3=O
measurement.units: %
result.number: -94.2
--
molecule: O=S(=O)(c1ccc(O)cc1)c1ccccc1O
measurement.units: %
result.number: 111
--
molecule: CC/C(Cc1ccccc1)=C(\c1ccc(OCCN2CCCC2)cc1)c1ccc(OC(=O)NCc2ccccc2)cc1
measurement.units: %
result.number: 58.1
--
molecule: C[C@]12CC[C@H]3[C@@H](CC=C4c5nc(N)sc5CC[C@@]43C)[C@@H]1CC[C@@H]2O
measurement.units: %
result.number: 92.6
--
molecule: CCOP(=O)(NC)OCC
measurement.units: %
result.number: 121
--
molecule: CC[C@H](C)[C@H](NC(=O)[C@H]1CCCCN1C)C(=O)N(C)[C@H](CCc1nc(C(=O)N[C@@H](Cc2ccccc2)C[C@H](C)C(=O)O)cs1)C(C)C
measurement.units: %
result.number: 53.4
--
molecule: COC(=O)C12C3C4C1C1C2C3C41NC(=O)c1csc([C@@H](C[C@H](C(C)C)N(C)C(=O)[C@@H](NC(=O)[C@H]2CCCCN2C)C2CC2)OC(C)=O)n1 (stereo not given in full)
measurement.units: %
result.number: 56
--
molecule: C[N+]1(CC#CC[N+]2(C)CCCC2)CCCC1
measurement.units: %
result.number: 105
--
molecule: CCC1(NC(=O)c2cc(F)c(F)c(F)c2F)C(=O)NC(=O)N(C(C)C)C1=O (stereo not given)
measurement.units: %
result.number: 70.4
--
molecule: CC[C@H](C)[C@H](NC(=O)[C@H]1CCCCN1C)C(=O)N(C)[C@H](C[C@@H](OC(C)=O)c1nc(C(=O)NC23C4C5C2C2C3C4C52C(=O)OC)cs1)C(C)C (stereo not given in full)
measurement.units: %
result.number: 46.4
